Molecular target: T1, neuropilin-1 (NRP1) on HEK293 cells overexpressing NRP1 (UniProt O14786 22-923, limits assumed)
T1 construct: whole, on cells
Experiment: flow cytometry, HEK293-NRP1 vs HEK293
In this section we review reported 100 nM FACS (MFI Ratio) values for a set of binders.
The answer should be written as a number, with no unit following it.

NRP1-285 (antibody, IgG2, V domains shown) VH: EVQLLESGGGLVQPGGSLRLSCAASGFTLSNYGMSWVRQAPGKGLEWVSTISGSGSGTYYADSVKGRFTISRDNSKNTLYLQMNSLRAEDTAVYYCARAGKAFDYWGQGTLVTVSS VL: DIQMTQSPSSLSASVGDRVTITCRASQSVSSYLSWYQQKPGKAPKLLIYAATSLESGVPSRFSGSGSGTDFTLTISSLQPEDFATYYCQQSYRTPLTFGGGTKVEIK | 1.3

Note: attention shifts to another entry.
Input NRP1-238 (antibody, IgG2, V domains shown) VH: EVQLLESGGGLVQPGGSLRLSCAASGFSFSNYGMSWVRQAPGKGLEWVSSISHSGGSTYYADSVKGRFTISRDNSKNTLYLQMNSLRAEDTAVYYCARVGPGRSIAARQGFKRRNNWFDPWGQGTLVTVSS VL: DIQMTQSPSSLSASVGDRVTITCRASQSISSQLNWYQQKPGKAPKLLIYRASRLQSGVPSRFSGSGSGTDFTLTISSLQPEDFATYYCQQSYSTPRSFGGGTKVEIK . Output 100 nM FACS (MFI Ratio): 0.9

Reference source: patent US20230265198A1
